Assay read-out log10(Ki) on Beta-secretase 1 (Homo sapiens); records merged from the literature.
On a log10 scale: recorded Ki, unit nM.

The cases that follow already have their log10(Ki) on record.
compound=C[C@]1(F)CC(F)(F)[C@@](C)(c2cc(NC(=O)c3nc(CF)cs3)ccc2F)N=C1N measured_on="Beta-secretase 1 (Homo sapiens)" observed_value=1.66
compound=COc1cnc(C(=O)Nc2ccc3c(c2)[C@]2(CCO3)CS(=O)(=O)C(C)(C)C(=N)N2)cn1 measured_on="Beta-secretase 1 (Homo sapiens)" observed_value=1.72
compound=CN1C(=N)N[C@](C)(c2sc(-c3nnc(-c4cnn(C)c4)o3)cc2Cl)CS1(=O)=O measured_on="Beta-secretase 1 (Homo sapiens)" observed_value=2.61
compound=COC(=O)Cc1ccc(-c2nnc(-c3cc(Cl)c([C@]4(C)CS(=O)(=O)N(C)C(=N)N4)s3)o2)cc1 measured_on="Beta-secretase 1 (Homo sapiens)" observed_value=2.14
compound=Cc1nc(-c2cccc(-c3cc(Cl)c([C@]4(C)CS(=O)(=O)N(C)C(=N)N4)s3)c2)no1 measured_on="Beta-secretase 1 (Homo sapiens)" observed_value=1.13

What reported log10(Ki) corresponds to CC1(S(C)(=O)=O)CCC(CF)(c2cc(NC(=O)c3cc4c(cn3)OC(F)(F)CO4)cc(F)c2F)N=C1N (stereo not shown) on Beta-secretase 1 (Homo sapiens)?
-0.80

What reported log10(Ki) corresponds to Cc1cc(F)cnc1C(=O)Nc1ccc(F)c([C@@]2(C)N=C(N)[C@@](C)(F)CC2(F)F)c1 on Beta-secretase 1 (Homo sapiens)?
1.78
